All figures here come from patent US20240132624A1.

target: T1, human FcRn/b2M (human, UniProt P61769 21-119, biotinylated); assay: SPR pH 6.0;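 also: surface plasmon resonance kinetics at 25 °C, diluted periplasmic extracts injected over immobilized ligand surfaces, 120 s association then 600–3600 s dissociation, running buffer containing 150 mM NaCl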
T1 construct: bought recombinant biotinylated protein (ACRO FCM-H82W4 or Immunitrack ITF01); also called hFcRn; hFcRn/hb2M
test readout: koff (s⁻¹)

>>> readout_value("T0263018B11 T28Y (VHH, name in Kabat numbering, FLAG3-His6 tagged) VHH: EVQLVESGGGVVQPGGSLRLSCAASGFYFSSYAMYWVRQAPGKGLEWVSAISSGGGSTDYADSVKGRFTISRDNSKNTLYLQMNSLRPEDTALYYCAADTLYTSLTWYSYWGQGTLVTVSS")
0.0012

A. T0263018B11 S101E (VHH, name in Kabat numbering, FLAG3-His6 tagged) VHH: EVQLVESGGGVVQPGGSLRLSCAASGFTFSSYAMYWVRQAPGKGLEWVSAISSGGGSTDYADSVKGRFTISRDNSKNTLYLQMNSLRPEDTALYYCAADTLYTSLTWYEYWGQGTLVTVSS
B. T0263018B11 S52aN (VHH, name in Kabat numbering, FLAG3-His6 tagged) VHH: EVQLVESGGGVVQPGGSLRLSCAASGFTFSSYAMYWVRQAPGKGLEWVSAISNGGGSTDYADSVKGRFTISRDNSKNTLYLQMNSLRPEDTALYYCAADTLYTSLTWYSYWGQGTLVTVSS
C. T0263018B11 S52aY (VHH, name in Kabat numbering, FLAG3-His6 tagged) VHH: EVQLVESGGGVVQPGGSLRLSCAASGFTFSSYAMYWVRQAPGKGLEWVSAISYGGGSTDYADSVKGRFTISRDNSKNTLYLQMNSLRPEDTALYYCAADTLYTSLTWYSYWGQGTLVTVSS
Task: Ranking field: koff; order: falling. List the labels according to the requested ordering.
Output: B, C, A
(B: 0.0012 s⁻¹, C: 0.00083 s⁻¹, A: 0.00018 s⁻¹)
